Assay: self-splicing fitness, log relative to wild type (ln ratio); higher = more splicing; Tetrahymena group I intron in knt gene, E. coli kanamycin selection, DiMSum; sequences stand for … in CUCUCU…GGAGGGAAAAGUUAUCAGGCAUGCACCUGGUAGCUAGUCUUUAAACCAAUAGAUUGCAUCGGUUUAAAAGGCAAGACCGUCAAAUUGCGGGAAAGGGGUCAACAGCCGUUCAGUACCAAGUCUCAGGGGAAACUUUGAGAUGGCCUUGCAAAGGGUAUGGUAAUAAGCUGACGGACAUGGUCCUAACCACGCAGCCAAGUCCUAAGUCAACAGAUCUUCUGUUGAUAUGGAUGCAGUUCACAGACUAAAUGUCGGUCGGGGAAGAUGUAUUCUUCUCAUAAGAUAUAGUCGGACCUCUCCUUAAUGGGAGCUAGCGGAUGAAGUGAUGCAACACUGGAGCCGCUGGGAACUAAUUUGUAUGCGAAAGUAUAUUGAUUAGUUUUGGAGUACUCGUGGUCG;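 note: selection with 25 µg/mL kanamycin versus none on LB agar overnight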
Settings: 30 °C
self-splicing fitness (ln) values by entry
I only need the number, thanks.

CGUAAGCAAUAUUACGGCAA = -2.37
CCCUAGCAAUAUUACGGUAC = -4.33
GACGAGCAAUAUUACGGUAA = -3.65
CAUAAGCAAUAUUACGGCAA = -2.52
AACCAGCAAUAUUACGCACG = -0.891

Form field self-splicing fitness (ln), entry `AUGUAGCAAUAUUACGCGAU` : -2.09

* * *

Assay: self-splicing fitness, log relative to wild type (ln ratio); higher = more splicing; Tetrahymena group I intron in knt gene, E. coli kanamycin selection, DiMSum; sequences stand for … in CUCUCU…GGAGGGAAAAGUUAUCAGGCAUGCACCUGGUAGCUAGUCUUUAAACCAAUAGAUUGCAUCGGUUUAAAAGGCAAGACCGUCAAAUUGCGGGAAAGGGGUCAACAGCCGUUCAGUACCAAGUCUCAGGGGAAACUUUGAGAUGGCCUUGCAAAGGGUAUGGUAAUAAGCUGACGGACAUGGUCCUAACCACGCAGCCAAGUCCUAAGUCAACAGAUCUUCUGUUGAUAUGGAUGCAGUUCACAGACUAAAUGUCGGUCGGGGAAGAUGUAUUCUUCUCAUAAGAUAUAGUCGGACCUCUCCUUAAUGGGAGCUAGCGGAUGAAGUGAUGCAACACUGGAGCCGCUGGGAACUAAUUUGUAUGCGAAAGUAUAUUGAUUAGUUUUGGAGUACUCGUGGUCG
Conditions: 30 °C
self-splicing fitness (ln) values by entry
I only need the number, thanks.

Sample records with self-splicing fitness (ln):
UUGGAGCAAUAUUACGCCAA = -1.49
ACGCAGCAAUAUUACGGCCA = -0.646
CUUCAGCAAUAUUACGGGAU = -2.14
CUUAAGCAAUAUUACGGAUG = -0.76
GUGAAGCAAUAUUACGGACG = 0.234
ACGCAGCAAUAUUACGAAUU = -4.01

Form field self-splicing fitness (ln), entry `CUUGAGCAAUAUUACGCUGU` : -2.28

Form field self-splicing fitness (ln), entry `AUAAAGCAAUAUUACGGUUC` : -2.17

Form field self-splicing fitness (ln), entry `CCUUAGCAAUAUUACGAGGC` : -4.12

* * *

Assay: self-splicing fitness, log relative to wild type (ln ratio); higher = more splicing; Tetrahymena group I intron in knt gene, E. coli kanamycin selection, DiMSum; sequences stand for … in CUCUCU…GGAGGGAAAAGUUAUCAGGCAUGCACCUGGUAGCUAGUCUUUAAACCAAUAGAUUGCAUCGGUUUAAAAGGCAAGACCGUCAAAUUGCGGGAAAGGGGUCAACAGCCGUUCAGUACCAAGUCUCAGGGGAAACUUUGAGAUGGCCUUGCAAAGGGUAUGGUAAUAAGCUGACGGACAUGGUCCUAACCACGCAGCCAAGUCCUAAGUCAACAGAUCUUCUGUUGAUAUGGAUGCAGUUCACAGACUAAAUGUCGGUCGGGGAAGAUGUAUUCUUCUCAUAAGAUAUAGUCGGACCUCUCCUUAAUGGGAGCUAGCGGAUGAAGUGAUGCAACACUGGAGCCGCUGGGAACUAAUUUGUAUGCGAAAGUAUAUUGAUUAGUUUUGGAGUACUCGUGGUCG
Conditions: 37 °C
Would you mind labelling by self-splicing fitness (ln)? At or over -2 is fulfilled, under is not fulfilled.

Answered examples (8):
ACGAAGCAAUAUUACGAGGU = not fulfilled
GAUCAGCAAUAUUACGUGGU = not fulfilled
CGUUAGCAAUAUUACGACGG = fulfilled
UCUUAGCAAUAUUACGAUCA = fulfilled
AUUAAGCAAUAUUACGCACC = fulfilled
CAUGAGCAAUAUUACGUCGU = not fulfilled
ACUUAGCAAUAUUACGGGAA = fulfilled
GCCAAGCAAUAUUACGUAGG = fulfilled

Assess whether reported self-splicing fitness (ln) for `AACUAGCAAUAUUACGUCCG` sits at -2 or higher. fulfilled

Assess whether reported self-splicing fitness (ln) for `UUCGAGCAAUAUUACGCUGA` sits at -2 or higher. fulfilled

Assess whether reported self-splicing fitness (ln) for `CUUGAGCAAUAUUACGAUCA` sits at -2 or higher. not fulfilled

Assess whether reported self-splicing fitness (ln) for `GGACAGCAAUAUUACGACGA` sits at -2 or higher. fulfilled

Assess whether reported self-splicing fitness (ln) for `ACUUAGCAAUAUUACGUUUG` sits at -2 or higher. not fulfilled

Assess whether reported self-splicing fitness (ln) for `AAUAAGCAAUAUUACGACAG` sits at -2 or higher. fulfilled

Assess whether reported self-splicing fitness (ln) for `UCGAAGCAAUAUUACGUACA` sits at -2 or higher. fulfilled

* * *

self-splicing fitness (ln) values by entry
Experiment: self-splicing fitness, log relative to wild type (ln ratio); higher = more splicing; Tetrahymena group I intron in knt gene, E. coli kanamycin selection, DiMSum; sequences stand for … in CUCUCU…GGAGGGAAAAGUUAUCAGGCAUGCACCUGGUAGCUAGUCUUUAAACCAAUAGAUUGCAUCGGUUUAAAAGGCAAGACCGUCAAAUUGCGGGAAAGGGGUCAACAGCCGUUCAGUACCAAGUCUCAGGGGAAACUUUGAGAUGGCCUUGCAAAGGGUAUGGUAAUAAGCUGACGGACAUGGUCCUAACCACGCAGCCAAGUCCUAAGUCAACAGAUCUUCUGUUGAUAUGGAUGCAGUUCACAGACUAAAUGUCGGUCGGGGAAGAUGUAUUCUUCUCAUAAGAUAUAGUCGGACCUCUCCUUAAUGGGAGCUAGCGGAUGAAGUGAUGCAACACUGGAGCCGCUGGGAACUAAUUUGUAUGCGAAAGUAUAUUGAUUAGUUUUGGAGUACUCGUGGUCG
Conditions: 30 °C
I only need the number, thanks.

Sample records with self-splicing fitness (ln):
GUCAAGCAAUAUUACGGUGG = -4.45
UAGAAGCAAUAUUACGUCGU = -1.75
AAUAAGCAAUAUUACGUCCU = -0.0473

Form field self-splicing fitness (ln), entry `GUCCAGCAAUAUUACGACCU` : -2.17

Form field self-splicing fitness (ln), entry `CACAAGCAAUAUUACGUACU` : -3.09

Form field self-splicing fitness (ln), entry `CGGAAGCAAUAUUACGUGUC` : -3.44

Form field self-splicing fitness (ln), entry `UUAAAGCAAUAUUACGGUUC` : -3.46

Form field self-splicing fitness (ln), entry `ACGAAGCAAUAUUACGGCCA` : -0.778

Form field self-splicing fitness (ln), entry `GCAAAGCAAUAUUACGGCUC` : -0.596

Form field self-splicing fitness (ln), entry `CUUUAGCAAUAUUACGCACC` : -2.92

Form field self-splicing fitness (ln), entry `CCGGAGCAAUAUUACGGCUG` : -1.14

Form field self-splicing fitness (ln), entry `CUAGAGCAAUAUUACGUGUA` : -4.57

Form field self-splicing fitness (ln), entry `AAACAGCAAUAUUACGUGAG` : -0.858

Form field self-splicing fitness (ln), entry `UCGCAGCAAUAUUACGACCG` : -0.544

* * *

Assay: self-splicing fitness, log relative to wild type (ln ratio); higher = more splicing; Tetrahymena group I intron in knt gene, E. coli kanamycin selection, DiMSum; sequences stand for … in CUCUCU…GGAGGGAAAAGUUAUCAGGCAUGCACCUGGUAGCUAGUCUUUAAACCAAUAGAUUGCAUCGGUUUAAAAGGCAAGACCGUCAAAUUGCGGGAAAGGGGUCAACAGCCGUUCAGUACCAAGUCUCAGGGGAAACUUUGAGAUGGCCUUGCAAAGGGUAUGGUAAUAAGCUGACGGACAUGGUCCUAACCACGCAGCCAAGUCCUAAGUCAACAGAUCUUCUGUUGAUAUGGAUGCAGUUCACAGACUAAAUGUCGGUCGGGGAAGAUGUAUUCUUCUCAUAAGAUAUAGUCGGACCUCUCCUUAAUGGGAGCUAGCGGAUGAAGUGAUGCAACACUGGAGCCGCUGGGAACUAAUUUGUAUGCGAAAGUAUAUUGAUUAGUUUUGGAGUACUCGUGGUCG
Conditions: 30 °C
Would you mind labelling by self-splicing fitness (ln)? At or over -3 is Satisfied, under is Not satisfied.

UAAUAGCAAUAUUACGUCAC = Not satisfied

Assess whether reported self-splicing fitness (ln) for `CGAAAGCAAUAUUACGCCUU` sits at -3 or higher. Satisfied

Assess whether reported self-splicing fitness (ln) for `UUAAAGCAAUAUUACGACAG` sits at -3 or higher. Satisfied

Assess whether reported self-splicing fitness (ln) for `UCCGAGCAAUAUUACGGACU` sits at -3 or higher. Not satisfied

Assess whether reported self-splicing fitness (ln) for `UAACAGCAAUAUUACGAGUA` sits at -3 or higher. Satisfied

Assess whether reported self-splicing fitness (ln) for `AACUAGCAAUAUUACGAAAG` sits at -3 or higher. Satisfied

Assess whether reported self-splicing fitness (ln) for `GCACAGCAAUAUUACGCUAU` sits at -3 or higher. Satisfied
